tested on: HOP-62 NSCLC; experiment: NCI tumour cell line growth inhibition, 48 h
Recorded TGI values for a group of compounds are listed next.

{"compound": "CCC(=O)n1c(=O)n(-c2ccc([N+](=O)[O-])cc2)c(=O)n1C(=O)CC", "TGI": "> 100 µM"}
{"compound": "C[n+]1c(-c2ccc(/C=N/Nc3n[nH]c(=S)n3N/N=C/c3ccc(-c4cn5ccccc5[n+]4C)cc3)cc2)cn2ccccc21", "TGI": "> 100 µM"}
{"compound": "COC(=O)C1(Cc2ccc3c(c2)CCC3)Cc2cc3c(cc2C1=O)CCC3 (configuration not stated)", "TGI": "> 46.4 µM"}
{"compound": "O=C(O)c1ccc(/C=N\\N(CCO)C2=NCCN2)cc1", "TGI": "> 100 µM"}
{"compound": "CC(=O)O[C@H]1CC[C@H]2[C@@H]3CC[C@H]4Nc5c(cnn5S(C)(=O)=O)C[C@]4(C)[C@H]3CC[C@]12C", "TGI": "77.4 µM"}
{"compound": "Cc1cc(Cl)ccc1Nc1nc(C(F)(F)F)ccc1C(=O)N/N=C/c1ccc(N(C)C)cc1", "TGI": "> 100 µM"}
{"compound": "Cc1cc(NS(=O)(=O)c2ccc(NC(=O)c3cccc4c(NNc5ccc(S(N)(=O)=O)cc5)c5ccccc5nc34)cc2)no1", "TGI": "> 100 µM"}
